- Experiment: Half life in rat at 10 mg/kg, iv
- Format: ADME, organism-based
- Design: dose 10 mg/kg, route intravenous
- Condition label: in vivo
Attribute measured: half-life (h)
Respond with the bare value in h.

I'd like to know its half-life. The compound in question is `Cc1cc2cc(N=C(NC(=O)c3ccc(C(=O)N(C)C)nc3)N[C@H]3CCCCN(CC(=O)N4CCCC4)C3=O)ccc2o1`
1.6

====

- System: Cytochrome P450 2D6 (Homo sapiens)
- Sequence (P10635 whole entry): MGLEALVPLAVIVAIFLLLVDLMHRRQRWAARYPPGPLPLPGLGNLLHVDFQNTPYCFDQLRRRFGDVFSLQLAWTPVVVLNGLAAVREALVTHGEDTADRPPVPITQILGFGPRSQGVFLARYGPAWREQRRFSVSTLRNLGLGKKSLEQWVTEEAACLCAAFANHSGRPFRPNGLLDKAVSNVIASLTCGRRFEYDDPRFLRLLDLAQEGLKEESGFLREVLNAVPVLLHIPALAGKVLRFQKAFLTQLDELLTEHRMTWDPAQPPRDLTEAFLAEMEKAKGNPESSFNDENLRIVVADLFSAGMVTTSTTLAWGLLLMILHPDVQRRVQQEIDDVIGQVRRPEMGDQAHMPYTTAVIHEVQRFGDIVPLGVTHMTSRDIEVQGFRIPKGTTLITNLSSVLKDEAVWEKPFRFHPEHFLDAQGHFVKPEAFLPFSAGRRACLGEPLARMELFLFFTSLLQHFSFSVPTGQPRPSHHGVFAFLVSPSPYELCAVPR
- Experiment: Inhibition of CYP2D6 by HHA assay
- Type: ADME
pIC50: −log10 of the molar value.
Attribute measured: pIC50

I'd like to know its pIC50. The compound in question is `Cc1cc2cc(N=C(NC(=O)c3ccc(C(=O)N(C)C)nc3)N[C@H]3CCCCN(CC(=O)N4CCCC4)C3=O)ccc2o1`
< 3.70
